biological target: T1, human CD71 extracellular domain (human, UniProt P02786 89-760, biotinylated); test: solution ELISA screen, signal ratio to HSA control
T1 construct: extracellular domain; also called hCD71; huCD71 ECD
T1 sequence (P02786 other isoform, or with tags, fused parts or gaps): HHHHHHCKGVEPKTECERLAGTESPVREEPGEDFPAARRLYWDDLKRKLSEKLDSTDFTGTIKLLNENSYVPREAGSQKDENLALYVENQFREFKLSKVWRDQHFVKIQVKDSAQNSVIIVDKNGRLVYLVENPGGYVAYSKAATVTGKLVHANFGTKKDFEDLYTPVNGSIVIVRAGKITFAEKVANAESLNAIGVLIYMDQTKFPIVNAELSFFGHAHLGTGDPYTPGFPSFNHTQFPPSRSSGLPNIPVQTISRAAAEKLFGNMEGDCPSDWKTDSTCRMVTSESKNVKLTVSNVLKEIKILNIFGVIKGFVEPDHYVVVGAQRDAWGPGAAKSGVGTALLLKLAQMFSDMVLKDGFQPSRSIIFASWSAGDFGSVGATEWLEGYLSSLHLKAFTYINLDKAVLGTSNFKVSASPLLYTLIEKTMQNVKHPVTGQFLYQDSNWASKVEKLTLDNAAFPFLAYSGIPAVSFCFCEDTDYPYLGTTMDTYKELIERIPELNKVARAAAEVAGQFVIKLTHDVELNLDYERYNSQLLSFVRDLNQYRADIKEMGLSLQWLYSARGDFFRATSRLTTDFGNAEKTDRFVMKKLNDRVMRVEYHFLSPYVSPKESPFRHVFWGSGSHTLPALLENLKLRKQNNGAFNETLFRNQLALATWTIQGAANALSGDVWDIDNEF
Task for the reader: assign each of the following binders its reported hCD71:HSA.
Numbers only here, please. The scale is ratio.

# input // hCD71:HSA lookup, key: SEQ ID NO 262 (designed binder, not shown: small tags and cut ends) MLPAPKNLVVSRVTEDSARLSWTAPDAAFDSFYIAYAEPRPDGEAIVLHVPGSERSYDLTGLKPGTEYSVLIHGVKGGLLSSPLQAIFTT
# output 128

# input Try the binder SEQ ID NO 249 (designed binder, not shown: small tags and cut ends) MLPAPKNLVVSRVTEDSARLSWTAPDAAFDSFYIAYAEPRPDGEAIVLEVPGSERSYDLTGLKPGTEYSVLIHGVKGGLLSSPLHANFTT
# output 205

# input // repeat for SEQ ID NO 241 (designed binder, not shown: small tags and cut ends) MLPAPKNLVVSRVTEDSARLSWTAPDAAFDSFFIGYLEPQPPGEAIHLGVPGSERSYDLTGLKPGTEYNVTIQGVKGGFPSIPLFASFTT and report
# output 117
